Tested on: HAP1 MTAP-deleted cell line
Assay: Viability assay, MTAP-deleted cell line
Assay type: cell-based
Settings: Homo sapiens, HAP1, viability assay, HAP1 MTAP-deleted; read-out: HAP1 MTAP deleted viability
measured.parameter: IC50

// worked examples, IC50 included
[[record]]
molecule = "Cc1cc(NC(=O)C(=O)N2C[C@H](C)CC[C@H]2c2ccc(C(N)=O)s2)cnc1N (single isomer, unassigned)"
measured_parameter = "IC50"
reading = "> 10 µM"

[[record]]
molecule = "CNc1ccc([C@@H]2CC[C@@H](C)CN2C(=O)C(=O)Nc2cnc(N)c(C)c2)cn1 (single isomer, unassigned)"
measured_parameter = "IC50"
reading = "< 1 µM"

[[record]]
molecule = "COc1ncc(NC(=O)C(=O)N2C[C@@H](C)CC[C@@H]2c2ccc3c(c2)OCCN3)cc1C(N)=O (racemic)"
measured_parameter = "IC50"
reading = "< 1 µM"

[[record]]
molecule = "Cc1cc(NC(=O)C(=O)N2C[C@H](C)C(F)(F)C[C@H]2c2ccc(F)cc2)cnc1N (single isomer, unassigned)"
measured_parameter = "IC50"
reading = "> 10 µM"

[[record]]
molecule = "Cc1cc(NC(=O)C(=O)N2CCC(C(=O)C(C)C)C[C@H]2c2ccc3c(c2)CCC(=O)N3)cnc1N (mixture of isomers)"
measured_parameter = "IC50"
reading = "1 to 10 µM"

[[record]]
molecule = "Cc1cc(NC(=O)C(=O)N2C[C@H](C)CC[C@H]2C2CCNCC2)cnc1N (racemic)"
measured_parameter = "IC50"
reading = "> 10 µM"

[[record]]
molecule = "CCc1cc(NC(=O)C(=O)N2C[C@H](C)CC[C@H]2c2ccc(NS(C)(=O)=O)cc2)cnc1N (single isomer, unassigned)"
measured_parameter = "IC50"
reading = "> 10 µM"

[[record]]
molecule = "CC(=O)N1CCCC([C@@H]2CC[C@@H](C)CN2C(=O)C(=O)Nc2cnc(N)c(C)c2)C1 (mixture of isomers)"
measured_parameter = "IC50"
reading = "> 10 µM"

[[record]]
molecule = "Cc1cc(NC(=O)C(=O)N2C[C@H](C)CC[C@H]2C2CC3(CC(N)C3)C2)cnc1N (mixture of isomers)"
measured_parameter = "IC50"
reading = "1 to 10 µM"

[[record]]
molecule = "Cc1ccc([C@@H]2CC[C@H](C)CN2C(=O)C(=O)Nc2cncc(C(N)=O)c2)nc1 (racemic)"
measured_parameter = "IC50"
reading = "> 10 µM"


Asked: What does the data say about its IC50? Entry: CC(=O)N[C@H]1CCN(C(=O)C(=O)Nc2cncc(C(N)=O)c2)[C@@H](c2ccccc2)C1 (racemic)
Given back: > 10 µM

Asked: For the molecule C[C@H]1CC[C@H](c2ccc3c(c2)C(=O)NC3)N(C(=O)C(=O)Nc2cncc(C(N)=O)c2)C1 (single isomer, unassigned) , what IC50 is on record?
Given back: > 10 µM

Asked: Field request: IC50 | item: COc1ncc(NC(=O)C(=O)N2C[C@@H](C)CC[C@@H]2c2ccc(NS(C)(=O)=O)cc2)cc1C(N)=O (single isomer, unassigned)
Given back: > 10 µM

###

Listed here: items and their measured pIC50.
Tested on: HAP1 MTAP-deleted cell line
Test: SDMA in-cell western assay, HAP1 MTAP-deleted
Format: cell-based
Details: Homo sapiens, HAP1, SDMA in-cell western, HAP1 MTAP-deleted; read-out: HAP 1 MTAP deleted IC50
pIC50: −log10 of the molar value.

Use these answered entries as a reference point.
[[record]]
molecule = "C[C@@H]1CC[C@@H](c2cccc(C(N)=O)c2)N(C(=O)C(=O)Nc2cncc(C(N)=O)c2)C1 (racemic) [Compound 125]"
study_target = "HAP1 MTAP-deleted cell line"
reading = "< 6.00"

[[record]]
molecule = "CCc1cc(NC(=O)C(=O)N2C[C@@H](C)CC[C@@H]2c2ccc3sc(C4(CN(C)C)CC4)nc3c2)cnc1N [Compound 1347]"
study_target = "HAP1 MTAP-deleted cell line"
reading = "> 7.00"

[[record]]
molecule = "Cc1cncc(NC(=O)C(=O)N2C[C@H](C)CC[C@H]2c2ccc(C)c(C)c2)c1 (single isomer, unassigned) [Compound 21]"
study_target = "HAP1 MTAP-deleted cell line"
reading = "< 6.00"


Asked: Dear colleague, I am looking for the recorded pIC50 of the following molecule: CCc1cc(NC(=O)C(=O)N2C[C@@H](C)CC[C@@H]2c2ccc(NC3CCN(C)CC3)nc2)cnc1N [Compound 1306]
Given back: > 7.00

Asked: Could you tell me which pIC50 is on file for Cc1cc(NC(=O)C(=O)N2C[C@H](C)CC[C@H]2C2CCN(C)CC2)cnc1N (racemic) [Compound 614] ?
Given back: < 6.00

Asked: Tell me the measured pIC50 of C[C@@H]1CC[C@@H](c2ccn(-c3cc[nH]n3)n2)N(C(=O)C(=O)Nc2cncc(C(N)=O)c2)C1 (single isomer, unassigned) [Compound 899] , please.
Given back: 6.00 to 7.00

Asked: Give the measured pIC50 of Cc1cc(NC(=O)C(=O)N2C[C@@H](C)CC[C@@H]2c2ccc(-c3ccn[nH]3)cc2)cnc1N (single isomer, unassigned) [Compound 676] .
Given back: > 7.00

Asked: So what's the measured pIC50 for this one? CCc1cc(NC(=O)C(=O)N2C[C@@H](C)CC[C@@H]2c2ccc3c(c2)CNC3=O)cnc1N (single isomer, unassigned) [Compound 696]
Given back: > 7.00

Asked: Could you share which pIC50 value was measured for Cc1cc(NC(=O)C(=O)N2C[C@H](C)CC[C@H]2c2ccc(-c3nccs3)cn2)cnc1N (racemic) [Compound 991] ?
Given back: 6.00 to 7.00

Asked: Data request, read-out pIC50, for COc1ccc([C@@H]2CC[C@@H](C)CN2C(=O)C(=O)Nc2cncc(C(N)=O)c2)cn1 (racemic) [Compound 128]
Given back: 6.00 to 7.00

Asked: I would be grateful if you could share the reported pIC50 for Cc1cc([C@H]2CC[C@H](C)CN2C(=O)C(=O)Nc2cncc(C(N)=O)c2)ccn1 (single isomer, unassigned) [Compound 534] .
Given back: 6.00 to 7.00

Asked: Return reported pIC50; argument: C[C@H]1CC[C@H](c2ccc(Cl)cc2)N(C(=O)C(=O)Nc2cncc(C(N)=O)c2)C1 (single isomer, unassigned) [Compound 569]
Given back: < 6.00

Asked: Item under review: CCc1cc(NC(=O)C(=O)N2C[C@H](C)CC[C@H]2c2cc3cn[nH]c3s2)cnc1N (single isomer, unassigned) [Compound 1055] . Reported pIC50?
Given back: < 6.00

###

System: HAP1 MTAP-deleted cell line
Assay: SDMA in-cell western assay, HAP1 MTAP-deleted
Format: cell-based
Settings: Homo sapiens, HAP1, SDMA in-cell western, HAP1 MTAP-deleted; read-out: HAP1 MTAP deleted IC50
measured.parameter: IC50

[[record]]
compound = "CNc1ccc([C@H]2CC[C@H](C)CN2C(=O)C(=O)Nc2cncc(C(N)=O)c2)cc1 [Compound 438]"
reading = "< 0.1 µM"

[[record]]
compound = "Cc1cc(NC(=O)C(=O)N2C[C@H](C)CC[C@H]2c2cccc(N3CCN(C)CC3)c2)cnc1N (single isomer, unassigned) [Compound 1121]"
reading = "> 1 µM"


Now consider a different compound.
Asked: Sample Cc1nc2cc([C@@H]3CC[C@@H](C)CN3C(=O)C(=O)Nc3cnc(N)c(C)c3)ccc2s1 (single isomer, unassigned) [Compound 730] — what was its IC50?
Given back: > 1 µM

###

Measured IC50 accompanies every entry in the list below.
Molecular target: PRMT5 (Homo sapiens, UniProt O14744)
Construct: purchased Viva (custom protein)
Sequence (O14744 whole entry): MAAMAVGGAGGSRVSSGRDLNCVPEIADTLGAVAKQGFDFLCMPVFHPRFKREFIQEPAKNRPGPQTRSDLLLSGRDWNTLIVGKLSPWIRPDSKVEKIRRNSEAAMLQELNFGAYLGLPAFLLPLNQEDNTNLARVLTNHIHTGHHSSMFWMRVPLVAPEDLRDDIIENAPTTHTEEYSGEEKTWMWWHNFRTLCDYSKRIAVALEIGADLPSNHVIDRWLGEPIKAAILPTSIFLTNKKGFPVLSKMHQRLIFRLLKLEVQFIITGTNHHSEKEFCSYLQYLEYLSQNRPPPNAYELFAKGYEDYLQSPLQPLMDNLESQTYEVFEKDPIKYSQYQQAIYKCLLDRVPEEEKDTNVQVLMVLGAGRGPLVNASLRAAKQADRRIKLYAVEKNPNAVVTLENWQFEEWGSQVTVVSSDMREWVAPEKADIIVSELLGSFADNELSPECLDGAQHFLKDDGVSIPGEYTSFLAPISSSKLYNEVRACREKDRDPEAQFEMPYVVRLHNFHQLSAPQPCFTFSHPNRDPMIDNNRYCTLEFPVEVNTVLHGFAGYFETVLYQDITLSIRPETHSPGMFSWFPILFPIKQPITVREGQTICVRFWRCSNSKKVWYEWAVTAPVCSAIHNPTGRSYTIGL
Sequence (Q9BQA1 whole entry partner): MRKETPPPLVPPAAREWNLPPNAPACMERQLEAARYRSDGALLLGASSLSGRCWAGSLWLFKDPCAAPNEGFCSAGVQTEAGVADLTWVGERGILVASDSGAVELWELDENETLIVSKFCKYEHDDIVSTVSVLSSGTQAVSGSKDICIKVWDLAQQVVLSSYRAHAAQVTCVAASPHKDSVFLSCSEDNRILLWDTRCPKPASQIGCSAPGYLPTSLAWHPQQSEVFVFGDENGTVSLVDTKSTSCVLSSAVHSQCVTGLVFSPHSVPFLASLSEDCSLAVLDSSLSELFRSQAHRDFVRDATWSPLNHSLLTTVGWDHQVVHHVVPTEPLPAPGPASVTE
Test: PRMT5 biochemical IC50 assay with SAM as cofactor
Conditions: PRMT5, SAM as cofactor; read-out: SAM IC50

Illustrative cases are given below, each with its answer.
[[record]]
compound = "CCc1cc(NC(=O)C(=O)N2C[C@@H](C)CC[C@@H]2c2ccc(N3CC[C@H]4CCN(C)C[C@H]4C3)cc2)cnc1N (single isomer, unassigned) [Compound 1204]"
reading = "0.05 to 0.5 µM"

[[record]]
compound = "CCc1cc(NC(=O)C(=O)N2C[C@@H](C)CC[C@@H]2c2ccc3nn([C@H]4CCCN(C)C4)cc3c2)cnc1N (single isomer, unassigned) [Compound 1271]"
reading = "0.05 to 0.5 µM"

[[record]]
compound = "CCc1cc(NC(=O)C(=O)N2C[C@H](C)CC[C@H]2c2ccc(NC(C)=O)nc2)cnc1N (single isomer, unassigned) [Compound 921]"
reading = "> 0.5 µM"

[[record]]
compound = "CC(=O)Nc1cccc([C@@H]2CC[C@@H](C)CN2C(=O)C(=O)Nc2cncc(C)c2)c1 (racemic) [Compound 110]"
reading = "0.05 to 0.5 µM"


Asked: # IC50 lookup, item CCc1ncc(NC(=O)C(=O)N2C[C@@H](C)CC[C@@H]2c2ccccc2)cc1C(N)=O (racemic) [Compound 747]
Given back: 0.05 to 0.5 µM

Asked: Return reported IC50; argument: CCN1CCC(c2nc3cc([C@H]4CC[C@H](C)CN4C(=O)C(=O)Nc4cnc(N)c(C)c4)ccc3s2)CC1 [Compound 1335]
Given back: < 0.05 µM

Asked: Given CCc1cc(NC(=O)C(=O)N2C[C@@H](C)CC[C@@H]2c2ccc3sc(CCOC)nc3c2)cnc1N (single isomer, unassigned) [Compound 1386] , state its recorded IC50.
Given back: 0.05 to 0.5 µM

Asked: Requested field: IC50. Item: Cc1cc(NC(=O)C(=O)N2C[C@@H](C)CC[C@@H]2c2cccnc2)cnc1N (single isomer, unassigned) [Compound 309]
Given back: > 0.5 µM

Asked: Form field: reported IC50 of COc1ncc(NC(=O)C(=O)N2C[C@@H](C)CC[C@@H]2c2ccc3sc(C4CCN(C5CC5)CC4)nc3c2)cc1C(N)=O [Compound 1219]
Given back: 0.05 to 0.5 µM

Asked: Requested field: IC50. Item: COc1cccc([C@@H]2CC[C@@H](C)CN2C(=O)C(=O)Nc2cncc(C(N)=O)c2)c1 (racemic) [Compound 214]
Given back: 0.05 to 0.5 µM

Asked: Record request: IC50 value, item C[C@@H]1CC[C@@H](c2ccc(CC3CC3)cc2)N(C(=O)C(=O)Nc2cncc(C(N)=O)c2)C1 (racemic) [Compound 273]
Given back: 0.05 to 0.5 µM
